# Test summary: coupled detection enzyme interference, dose response, artefact control for MgcRacGAP inhibitor project, biochemical, coupled enzyme counter-screen (AID 624351);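 further: signal is the ADP detection kit reading of free GDP without any GAP enzyme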
# Experimental parameters: ADP Hunter coupled enzyme counter-screen, fluorescence, no MgcRacGAP; series mostly up to 80 µM
The whole screen tested about 2,400 compounds, of which about 1,400 (58%) were called active.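 How the source made its calls: active means inhibition of 30% or more at any tested dose; inconclusive means primary hits over the limit that were never retested; inactive means the rest.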 So high a share suggests a set chosen from earlier hits. The list shows a part of the results.
Hi! Could you answer with just one of these? active, inactive

Q. Could you kindly confirm the outcome this assay logged for CCOC(=O)C1=C(O)/C(=C\c2ccc(O)c(OCC)c2)N=C1C ?
A. active

Q. Here is the next molecule: c1coc(CSSCc2ccco2)c1
A. inactive

Q. Here is the next molecule: CCOc1cc(/C=C2\C(=O)N(Cc3ccco3)C(C)=C2C(=O)OC)ccc1O
A. active

Q. Here is the next molecule: N#Cc1ccccc1OCCCN1CCC(Cc2ccccc2)CC1
A. inactive

Q. Here is the next molecule: Cc1cc(C)cc(-n2c3nc4ccccc4nc3c3c(=O)n(Cc4ccco4)cnc32)c1
A. inactive

Q. Here is the next molecule: CCOc1cc(/C=C2/N=C(C)C(C(=O)OC)=C2O)ccc1O
A. active

Q. Here is the next molecule: Cc1ccc(C)c(S(=O)(=O)N2CCN(CC(=O)N3CCc4ccccc4C3)CC2)c1
A. inactive

Q. Here is the next molecule: N#Cc1ccccc1S(=O)(=O)N1CCN(C(=O)Cc2coc3cc(O)ccc23)CC1
A. active

Every entry's value here was drawn from PubChem BioAssay AID624351.
